system-name: TAFIa (Homo sapiens (Human))
Sequence (Q96IY4 115-423): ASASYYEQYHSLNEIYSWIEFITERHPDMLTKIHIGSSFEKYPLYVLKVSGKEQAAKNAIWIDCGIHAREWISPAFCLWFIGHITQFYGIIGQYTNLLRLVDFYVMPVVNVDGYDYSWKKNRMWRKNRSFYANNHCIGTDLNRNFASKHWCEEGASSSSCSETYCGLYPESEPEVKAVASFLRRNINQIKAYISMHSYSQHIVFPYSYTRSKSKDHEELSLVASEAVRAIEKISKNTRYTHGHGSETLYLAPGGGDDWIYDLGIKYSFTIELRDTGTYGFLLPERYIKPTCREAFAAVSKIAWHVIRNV
run-description: Determination of TAFIa enzyme inhibitory activity (FAAK substrate degradation)
Type: biochemical
details: read-out: TAFIa IC50
The entries below come with measured pIC50 values attached.
pIC50 here is simply -log10 of the concentration when that concentration is written in mol/L.

See these solved cases before continuing.
CC[C@H](CN)C[C@H]1C[C@]1(C(=O)O)c1cn(-c2ccccc2)cn1 [Example 63] | 7.92
CCC[C@@H](CN)C[C@H]1C[C@]1(C(=O)O)c1cn(-c2ccccn2)cn1 [Example 66] | 7.39
CC(C)(C)CCn1cnc([C@@]2(C(=O)O)C[C@@H]2CCCN)c1 [Example 28] | 8.35

Switching to the query record.
Measured pIC50, CCC(CN)CC1C[C@]1(C(=O)O)c1cn(-c2ccccc2)cn1 (some centres unmarked) [Example 53] : 7.89

Source of measurements: patent US9662310B2
